# subjectOfTest: Albumin (Bos taurus)
# protocol: compounds binding labelled BSA control protein – biochemical, small-molecule microarray, Alexa647 label, 635/667 nm fluorescence, artefact control for SMM control protein annotation, profiling panel (AID 1118);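 note: score merges 667 nm emission intensity and signal-to-noise per printed compound spot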
# conditions: BSA-A647 binding, fluorescence 635 nm, higher = more signal
Below: a set of entries, each annotated with reported composite z-score.

>  <compound>
C=C(C)[C@@H]1CC=C(C(O)C2C=CC3C(=O)N(C)C(=O)C3N2Nc2ccc([N+](=O)[O-])cc2[N+](=O)[O-])CC1 (some centres undefined)

>  <subjectOfTest>
Albumin (Bos taurus)

>  <composite z-score>
0.689

$$$$
>  <compound>
COC(=O)[C@@]1(Cc2ccccc2)[C@H]2c3cc(C(=O)N(C)C)n(Cc4ccc(C(F)(F)F)nc4)c3C[C@H]2CN1C(=O)c1ccccc1

>  <subjectOfTest>
Albumin (Bos taurus)

>  <composite z-score>
0.463

$$$$
>  <compound>
COc1cc(CO)cc(I)c1O[C@H]1C=C(C(=O)NCCO)C[C@@H]2O[C@H]12

>  <subjectOfTest>
Albumin (Bos taurus)

>  <composite z-score>
-0.39

$$$$
>  <compound>
C=CCC(OC(C)=O)[C@@H]1[C@@H](N(Cc2cc3ccccc3o2)C(=O)Cc2ccc(OC)cc2)c2cc(OCCCO)ccc2N1C(=O)c1ccc2ccccc2n1 (some centres undefined)

>  <subjectOfTest>
Albumin (Bos taurus)

>  <composite z-score>
0.277

$$$$
>  <compound>
Cc1ccc(N2C(=O)c3ccccc3[C@](C)(C(=O)NCCCN(C)C)[C@@H]2c2ccc(CO)cc2)nc1

>  <subjectOfTest>
Albumin (Bos taurus)

>  <composite z-score>
0.656

$$$$
>  <compound>
CN(C)CCCCNC(=O)[C@H]1C[C@H]2C(=O)NCC(=O)N2[C@H]1c1ccc(O)cc1

>  <subjectOfTest>
Albumin (Bos taurus)

>  <composite z-score>
-0.411

$$$$
>  <compound>
C=C(COC)C(=O)CC[C@@H](OC(=O)c1ccccc1-c1ccccc1C(=O)O)c1ccc(OCCO)cc1

>  <subjectOfTest>
Albumin (Bos taurus)

>  <composite z-score>
-0.238

$$$$
>  <compound>
CC[C@@H]1C=C(C(=O)O)[C@H](c2ccc(OC)cc2)N1S(=O)(=O)c1ccc(C)cc1

>  <subjectOfTest>
Albumin (Bos taurus)

>  <composite z-score>
0.493

$$$$
>  <compound>
C[N+](C)(C)CCCC[C@@H]1NC(=O)[C@H]2C[C@@H](C(=O)NCCCCCNC(=O)CS)[C@@H](c3cccc(OCCO)c3)N2C1=O

>  <subjectOfTest>
Albumin (Bos taurus)

>  <composite z-score>
0.479

$$$$
>  <compound>
Cc1ccc(S[C@]2(C(=O)NC3CC3)CC(=O)N(C(C)C)[C@@H]2c2ccc(CO)cc2I)cc1

>  <subjectOfTest>
Albumin (Bos taurus)

>  <composite z-score>
0.899

$$$$
>  <compound>
CC1CC/C=C\[C@H]2OC34C=CCN(CCN5CCOCC5)C(=O)[C@H]3N(CCCO)C(=O)[C@@H]4C2C(=O)O1 (some centres undefined)

>  <subjectOfTest>
Albumin (Bos taurus)

>  <composite z-score>
-1.3

$$$$
>  <compound>
O=C1O[C@@H](c2ccccc2)[C@@H](c2ccccc2)N2[C@@H](c3ccccc3OCCO)[C@]3(C(=O)Nc4ccc(C#CCCO)cc43)[C@@H](C(=O)NC[C@H](O)c3ccccc3)[C@H]12

>  <subjectOfTest>
Albumin (Bos taurus)

>  <composite z-score>
0.366

$$$$
>  <compound>
COc1ccccc1CN1C(=O)c2ccccc2[C@](Cc2ccccc2I)(C(=O)NCC(C)C)[C@@H]1c1ccc(CO)cc1

>  <subjectOfTest>
Albumin (Bos taurus)

>  <composite z-score>
-0.133

$$$$
>  <compound>
CCCCCC1=C2CNC(Cc3ccccc3)(C(=O)OC)C=C2C(C)C1=O (centres undefined)

>  <subjectOfTest>
Albumin (Bos taurus)

>  <composite z-score>
0.638

$$$$
>  <compound>
CCOC(=O)C1=C[C@@H](C(C)(C)C)N(S(=O)(=O)c2ccc(C)cc2)[C@H]1c1ccc(C#N)cc1

>  <subjectOfTest>
Albumin (Bos taurus)

>  <composite z-score>
0.684

$$$$
>  <compound>
C=CCC(OC(C)=O)[C@@H]1[C@@H](N(Cc2cc3ccccc3o2)C(=O)c2cccc3ccccc23)c2cc(OCCCO)ccc2N1C(=O)c1ccc2ccccc2n1 (some centres undefined)

>  <subjectOfTest>
Albumin (Bos taurus)

>  <composite z-score>
0.423

$$$$
>  <compound>
CCOC(=O)C[C@H]1[C@H](OC(=O)Cc2ccc3c(c2)OCO3)[C@@H](NC(=O)c2ccc3ccccc3n2)c2cc(OCCCO)ccc2N1C(=O)Cc1ccc(OC)cc1

>  <subjectOfTest>
Albumin (Bos taurus)

>  <composite z-score>
0.635

$$$$
>  <compound>
Cc1ccc(S[C@]2(C(=O)NCCCN(C)C)CC(=O)N(C3Cc4ccccc4C3)[C@@H]2c2ccc(CO)cc2I)cc1

>  <subjectOfTest>
Albumin (Bos taurus)

>  <composite z-score>
0.827

$$$$
>  <compound>
Cc1ccc(F)cc1S(=O)(=O)N[C@H]1CCN(Cc2ccc(OC(C)C)cc2)C1

>  <subjectOfTest>
Albumin (Bos taurus)

>  <composite z-score>
-0.052

$$$$
>  <compound>
COCCOC(=O)N1C(=O)[C@@]2(c3cc(C#CC4(O)CCCCCC4)ccc31)[C@H](c1ccc(O)cc1)N1[C@H](c3ccccc3)[C@H](c3ccccc3)OC(=O)[C@H]1[C@@H]2C(=O)N1CCCCCCC1

>  <subjectOfTest>
Albumin (Bos taurus)

>  <composite z-score>
0.304

$$$$
>  <compound>
COCCCNC(=O)[C@@]1(Sc2ccc(C)cc2)CC(=O)N(Cc2ccccc2C(F)(F)F)[C@@H]1c1ccc(CO)cc1I

>  <subjectOfTest>
Albumin (Bos taurus)

>  <composite z-score>
0.474

$$$$
>  <compound>
CC(C)NC(=O)[C@@]1(C)c2ccccc2C(=O)N(Cc2ccccc2)[C@H]1c1ccc(CO)cc1

>  <subjectOfTest>
Albumin (Bos taurus)

>  <composite z-score>
0.489

$$$$
>  <compound>
C=CC[C@@]12N=C(c3ccc(OCCCO)cc3)O[C@@H]1c1ccccc1N(CCC)C2=O

>  <subjectOfTest>
Albumin (Bos taurus)

>  <composite z-score>
0.727

$$$$
>  <compound>
COc1ccc([Si](C)(C)[C@H]2[C@H](CC(=O)N3CCC[C@H]3CO)O[C@@]3(C(=O)N(Cc4ccc(N5CCCCC5=O)cc4)c4ccccc43)[C@@H]2C)cc1

>  <subjectOfTest>
Albumin (Bos taurus)

>  <composite z-score>
0.664

$$$$
>  <compound>
C=CCC(OC(C)=O)[C@@H]1[C@@H](N(Cc2ccc(-c3cccc(C(F)(F)F)c3)o2)C(=O)c2ccc(-c3ccccc3)cc2)c2cc(OCCCO)ccc2N1C(=O)c1ccc2ccccc2c1 (some centres undefined)

>  <subjectOfTest>
Albumin (Bos taurus)

>  <composite z-score>
-0.192

$$$$
>  <compound>
CO[C@H]1O[C@H](CO)[C@@H](OC(=O)Nc2ccccc2)[C@H](OC(=O)Nc2ccccc2)[C@H]1OC(=O)Nc1ccccc1

>  <subjectOfTest>
Albumin (Bos taurus)

>  <composite z-score>
0.729

$$$$
>  <compound>
C[C@@H]1ON(c2ccccc2)[C@H](c2ccccc2)[C@H]1C(=O)O

>  <subjectOfTest>
Albumin (Bos taurus)

>  <composite z-score>
-0.189

$$$$
>  <compound>
O=C(NCCN1CCOCC1)[C@@H]1c2ccccc2C(=O)N(Cc2ccc(OC(F)(F)F)cc2)[C@H]1c1ccc(CO)cc1

>  <subjectOfTest>
Albumin (Bos taurus)

>  <composite z-score>
0.816

$$$$
>  <compound>
CN1C(=O)C2C(C3CC3)C=C3CN(Cc4cccc(Cl)c4)[C@@H]([C@@H](O)Cc4ccccc4)C3C2C1=O (some centres undefined)

>  <subjectOfTest>
Albumin (Bos taurus)

>  <composite z-score>
0.363

$$$$

Values from PubChem BioAssay
